pIC50: −log10 of the molar value.
Quick note: these are pIC50 numbers for system: IRAK4 (Homo sapiens (Human), UniProt Q9NWZ3)
Sequence (Q9NWZ3 whole entry, species assumed): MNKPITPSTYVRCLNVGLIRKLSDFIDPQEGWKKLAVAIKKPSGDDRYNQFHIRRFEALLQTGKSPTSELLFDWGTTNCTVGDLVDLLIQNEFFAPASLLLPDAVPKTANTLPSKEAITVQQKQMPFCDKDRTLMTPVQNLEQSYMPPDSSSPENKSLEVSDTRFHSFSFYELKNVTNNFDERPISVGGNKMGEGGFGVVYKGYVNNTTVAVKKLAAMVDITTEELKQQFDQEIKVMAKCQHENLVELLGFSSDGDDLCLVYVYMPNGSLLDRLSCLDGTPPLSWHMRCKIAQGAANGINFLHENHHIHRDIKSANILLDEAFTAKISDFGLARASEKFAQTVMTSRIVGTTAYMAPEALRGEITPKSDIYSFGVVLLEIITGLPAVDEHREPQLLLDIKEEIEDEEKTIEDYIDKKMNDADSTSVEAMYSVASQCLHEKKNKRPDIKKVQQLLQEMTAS

[
  {
    "Molecule": "CC(N)c1cccc(-c2cc(Cl)c3cnc(-c4cccc(C(F)(F)F)n4)n3c2)n1 (centres unmarked)",
    "pIC50": "> 7.00"
  },
  {
    "Molecule": "CCC[C@@H](c1cccc(-c2ccc3cnn(-c4cccc(CO)n4)c3c2)n1)N(C)C",
    "pIC50": "6.00 to 7.00"
  },
  {
    "Molecule": "N#Cc1cccc(-c2ncc3ccc(-c4cncc(N)c4)cn23)c1",
    "pIC50": "5.00 to 6.00"
  },
  {
    "Molecule": "C[C@H](N)c1cccc(-c2cc(-c3ccn(C(F)F)n3)c3cnn(-c4cccc(CO)n4)c3c2)n1",
    "pIC50": "> 7.00"
  },
  {
    "Molecule": "C[C@H](N)c1cccc(-c2cc(-n3cncn3)c3cnn(-c4cccc(CO)n4)c3c2)n1",
    "pIC50": "> 7.00"
  },
  {
    "Molecule": "Cc1cccc(-n2ncc3ccc(-c4cncc(N5CCCC5)c4)cc32)n1",
    "pIC50": "5.00 to 6.00"
  },
  {
    "Molecule": "Cc1cccc(-n2ncc3ccc(-c4cccc(C(O)C(F)(F)F)n4)cc32)n1 (centres unmarked)",
    "pIC50": "6.00 to 7.00"
  },
  {
    "Molecule": "NC(=O)C(N)c1cccc(-c2ccc3cnn(-c4cccc(CO)n4)c3c2)n1 (centres unmarked)",
    "pIC50": "6.00 to 7.00"
  }
]

---

pIC50: −log10 of the molar value.
Quick note: these are pIC50 numbers for system: UniProt Q9NWZ3

[
  {
    "Compound": "CCC[C@H](N)c1cccc(-c2cc(N3CCOCC3=O)c3cnn(-c4cccc(CO)n4)c3c2)n1",
    "pIC50": "6.00 to 7.00"
  },
  {
    "Compound": "Cc1cccc(-n2ncc3ccc(-c4nccc(N)n4)cc32)n1",
    "pIC50": "5.00 to 6.00"
  },
  {
    "Compound": "N#Cc1cccc(-c2ccc3cnn(-c4cccc(C(F)(F)F)n4)c3c2)n1",
    "pIC50": "5.00 to 6.00"
  },
  {
    "Compound": "CC(N)c1cccc(-c2ccc3cnn(-c4ccnc(C#N)n4)c3c2)n1 (stereo not drawn)",
    "pIC50": "5.00 to 6.00"
  },
  {
    "Compound": "C[C@H](N)c1cccc(-c2ccc3cnn(-c4nccc(C(F)F)n4)c3c2)n1",
    "pIC50": "6.00 to 7.00"
  },
  {
    "Compound": "CCOc1cc(-c2cccc([C@@H](N)CC)n2)cc2c1cnn2-c1cncc(CO)n1",
    "pIC50": "> 7.00"
  },
  {
    "Compound": "N#Cc1cncc(-c2ccc3cnn(-c4cccc(C(F)(F)F)n4)c3c2)n1",
    "pIC50": "5.00 to 6.00"
  },
  {
    "Compound": "CCC[C@H](N)c1cccc(-c2ccc3cnn(-c4cccc(C)n4)c3c2)n1",
    "pIC50": "> 7.00"
  },
  {
    "Compound": "NC(c1cccc(-c2ccc3cnn(-c4cccc(CO)n4)c3c2)n1)C1COC1 (stereo not drawn)",
    "pIC50": "> 7.00"
  },
  {
    "Compound": "Cc1ccnc(-n2ncc3ccc(-c4cccc(C(C)N)n4)cc32)n1 (stereo not drawn)",
    "pIC50": "5.00 to 6.00"
  },
  {
    "Compound": "CCC[C@H](N)c1cccc(-c2cc(N3CC(F)(F)C3)c3cnn(-c4cccc(CO)n4)c3c2)n1",
    "pIC50": "> 7.00"
  },
  {
    "Compound": "C[C@H](N)c1cccc(-c2cc(-c3cc(C(F)(F)F)[nH]n3)c3cnn(-c4cccc(CO)n4)c3c2)n1",
    "pIC50": "> 7.00"
  },
  {
    "Compound": "Cc1cccc(-n2ncc3ccc(-c4cccc(C(N)C#N)n4)cc32)n1 (stereo not drawn)",
    "pIC50": "6.00 to 7.00"
  },
  {
    "Compound": "COc1cc(-c2cccc(C(C)N)n2)cc2c1cnn2-c1cccc(CO)n1 (stereo not drawn)",
    "pIC50": "> 7.00"
  },
  {
    "Compound": "Cc1cccc(-n2ncc3ccc(-c4cccc(C(N)C(=O)O)n4)cc32)n1 (stereo not drawn)",
    "pIC50": "> 7.00"
  },
  {
    "Compound": "Cc1cccc(-n2ncc3ccc(-c4cccc(C(C)O)n4)cc32)n1 (stereo not drawn)",
    "pIC50": "6.00 to 7.00"
  },
  {
    "Compound": "CC(N)c1cccc(-c2ccc3cnn(-c4cccc(C5CC5)n4)c3c2)n1 (stereo not drawn)",
    "pIC50": "> 7.00"
  },
  {
    "Compound": "Cc1cccc(-n2ncc3ccc(-c4cc(C(F)(F)F)cc(C(C)N)n4)cc32)n1 (stereo not drawn)",
    "pIC50": "6.00 to 7.00"
  }
]

---

# Tested System: IRAK4 (Homo sapiens (Human), UniProt Q9NWZ3)
pIC50: −log10 of the molar value.
# Lookup of reported pIC50 keyed by entry

[
  {
    "Compound": "CC(N)c1cccc(-c2ccc3cnn(-c4cccc(C(C)(C)S(C)(=O)=O)n4)c3c2)n1 (stereo not shown)",
    "Tested System": "IRAK4 (Homo sapiens (Human), UniProt Q9NWZ3)",
    "pIC50": "5.00 to 6.00"
  },
  {
    "Compound": "N#CCNC(=O)c1cccc(-n2ncc3ccc(-c4cncc(N)c4)cc32)n1",
    "Tested System": "IRAK4 (Homo sapiens (Human), UniProt Q9NWZ3)",
    "pIC50": "5.00 to 6.00"
  },
  {
    "Compound": "NCc1cccc(-c2ccc3cnn(-c4cccc(C(F)(F)F)n4)c3c2)n1",
    "Tested System": "IRAK4 (Homo sapiens (Human), UniProt Q9NWZ3)",
    "pIC50": "> 7.00"
  },
  {
    "Compound": "CC[C@H](N)c1cccc(-c2cc(-c3ccn(C)n3)c3cnn(-c4cccc(CO)n4)c3c2)n1",
    "Tested System": "IRAK4 (Homo sapiens (Human), UniProt Q9NWZ3)",
    "pIC50": "> 7.00"
  },
  {
    "Compound": "Cc1cccc(-n2ncc3c(-c4cnco4)cc(-c4cccc(C(C)N)n4)cc32)n1 (stereo not shown)",
    "Tested System": "IRAK4 (Homo sapiens (Human), UniProt Q9NWZ3)",
    "pIC50": "> 7.00"
  },
  {
    "Compound": "CC#CC[C@H](N)c1cccc(-c2cc(OCC)c3cnn(-c4cccc(CO)n4)c3c2)n1",
    "Tested System": "IRAK4 (Homo sapiens (Human), UniProt Q9NWZ3)",
    "pIC50": "> 7.00"
  },
  {
    "Compound": "CCC[C@@H](N)c1ccnc(-c2cc(OC)c3cnn(-c4cccc(CO)n4)c3c2)n1",
    "Tested System": "IRAK4 (Homo sapiens (Human), UniProt Q9NWZ3)",
    "pIC50": "> 7.00"
  },
  {
    "Compound": "CCC[C@H](N)c1cccc(-c2ccc3cnn(-c4cncc(C(F)(F)F)n4)c3c2)n1",
    "Tested System": "IRAK4 (Homo sapiens (Human), UniProt Q9NWZ3)",
    "pIC50": "> 7.00"
  },
  {
    "Compound": "CCC[C@H](N)c1cccc(-c2cc(N3CCSCC3)c3cnn(-c4cccc(CO)n4)c3c2)n1",
    "Tested System": "IRAK4 (Homo sapiens (Human), UniProt Q9NWZ3)",
    "pIC50": "> 7.00"
  },
  {
    "Compound": "CCC[C@H](N)c1cncc(-c2ccc3cnn(-c4cccc(CO)n4)c3c2)n1",
    "Tested System": "IRAK4 (Homo sapiens (Human), UniProt Q9NWZ3)",
    "pIC50": "> 7.00"
  },
  {
    "Compound": "CCC[C@H](N)c1cccc(-c2cc(C3CCOC3)c3cnn(-c4cccc(CO)n4)c3c2)n1 (stereo partly shown)",
    "Tested System": "IRAK4 (Homo sapiens (Human), UniProt Q9NWZ3)",
    "pIC50": "> 7.00"
  },
  {
    "Compound": "CCC[C@H](N)c1cccc(-c2cc(OCC)c3cnn(-c4cncc(CO)n4)c3c2)n1",
    "Tested System": "IRAK4 (Homo sapiens (Human), UniProt Q9NWZ3)",
    "pIC50": "> 7.00"
  },
  {
    "Compound": "Cc1cccc(-c2ncc3ccc(-c4cncc(N)c4)cn23)n1",
    "Tested System": "IRAK4 (Homo sapiens (Human), UniProt Q9NWZ3)",
    "pIC50": "> 7.00"
  },
  {
    "Compound": "CCCC(N)c1cccc(-c2ccc3cnn(-c4cccc(CO)n4)c3c2)n1 (stereo not shown)",
    "Tested System": "IRAK4 (Homo sapiens (Human), UniProt Q9NWZ3)",
    "pIC50": "> 7.00"
  },
  {
    "Compound": "C[C@H](N)c1cccc(-c2cc(C#N)c3cnn(-c4cccc(CO)n4)c3c2)n1",
    "Tested System": "IRAK4 (Homo sapiens (Human), UniProt Q9NWZ3)",
    "pIC50": "> 7.00"
  },
  {
    "Compound": "NCc1cc(N)cc(-c2ccc3cnn(-c4cccc(C(F)(F)F)n4)c3c2)n1",
    "Tested System": "IRAK4 (Homo sapiens (Human), UniProt Q9NWZ3)",
    "pIC50": "> 7.00"
  },
  {
    "Compound": "CC(N)c1cccc(-c2ccc3cnn(-c4ccn(C)n4)c3c2)n1 (stereo not shown)",
    "Tested System": "IRAK4 (Homo sapiens (Human), UniProt Q9NWZ3)",
    "pIC50": "6.00 to 7.00"
  },
  {
    "Compound": "CCC[C@H](N)c1ccnc(-c2ccc3cnn(-c4cccc(CO)n4)c3c2)n1",
    "Tested System": "IRAK4 (Homo sapiens (Human), UniProt Q9NWZ3)",
    "pIC50": "> 7.00"
  },
  {
    "Compound": "CCOc1cc(-c2cccc([C@@H](N)[C@H](F)CC)n2)cc2c1cnn2-c1cccc(CO)n1",
    "Tested System": "IRAK4 (Homo sapiens (Human), UniProt Q9NWZ3)",
    "pIC50": "> 7.00"
  },
  {
    "Compound": "CCC[C@H](N)c1cccc(-c2cc(OCCO)c3cnn(-c4cccc(CO)n4)c3c2)n1",
    "Tested System": "IRAK4 (Homo sapiens (Human), UniProt Q9NWZ3)",
    "pIC50": "> 7.00"
  },
  {
    "Compound": "COCCOc1cc(-c2cccc([C@H](N)C(F)CCO)n2)cc2c1cnn2-c1cccc(CO)n1 (stereo partly shown)",
    "Tested System": "IRAK4 (Homo sapiens (Human), UniProt Q9NWZ3)",
    "pIC50": "6.00 to 7.00"
  },
  {
    "Compound": "Cc1cnc(-c2cc(-c3cccc([C@H](C)N)n3)cc3c2cnn3-c2cccc(CO)n2)o1",
    "Tested System": "IRAK4 (Homo sapiens (Human), UniProt Q9NWZ3)",
    "pIC50": "> 7.00"
  },
  {
    "Compound": "C[C@H](N)c1ccnc(-c2ccc3cnn(-c4cccc(CO)n4)c3c2)n1",
    "Tested System": "IRAK4 (Homo sapiens (Human), UniProt Q9NWZ3)",
    "pIC50": "> 7.00"
  },
  {
    "Compound": "CC(C)(N)c1cccc(-c2ccc3cnn(-c4cccc(C(F)(F)F)n4)c3c2)n1",
    "Tested System": "IRAK4 (Homo sapiens (Human), UniProt Q9NWZ3)",
    "pIC50": "> 7.00"
  },
  {
    "Compound": "CCC[C@H](N)c1cccc(-c2ccc3cnn(-c4ccnc(CO)c4)c3c2)n1",
    "Tested System": "IRAK4 (Homo sapiens (Human), UniProt Q9NWZ3)",
    "pIC50": "6.00 to 7.00"
  },
  {
    "Compound": "Nc1cncc(-c2ccc3cnn(-c4cccc(C(=O)NCCO)n4)c3c2)c1",
    "Tested System": "IRAK4 (Homo sapiens (Human), UniProt Q9NWZ3)",
    "pIC50": "6.00 to 7.00"
  },
  {
    "Compound": "Cc1cccc(-n2ncc3ccc(-c4csc(CO)n4)cc32)n1",
    "Tested System": "IRAK4 (Homo sapiens (Human), UniProt Q9NWZ3)",
    "pIC50": "6.00 to 7.00"
  },
  {
    "Compound": "C[C@H](N)c1cccc(-c2ccc3cnn(-c4nc(CO)ccc4F)c3c2)n1",
    "Tested System": "IRAK4 (Homo sapiens (Human), UniProt Q9NWZ3)",
    "pIC50": "6.00 to 7.00"
  },
  {
    "Compound": "COCCOc1cc(-c2cccc([C@@H](N)CC(C)(F)F)n2)cc2c1cnn2-c1cccc(CO)n1",
    "Tested System": "IRAK4 (Homo sapiens (Human), UniProt Q9NWZ3)",
    "pIC50": "> 7.00"
  },
  {
    "Compound": "CCC[C@@H](N)c1cccc(-c2ccc3cnn(-c4cccc(C)n4)c3c2)n1",
    "Tested System": "IRAK4 (Homo sapiens (Human), UniProt Q9NWZ3)",
    "pIC50": "> 7.00"
  },
  {
    "Compound": "Cc1cccc(-n2ncc3ccc(-c4cccc(C(N)C(N)=O)n4)cc32)n1 (stereo not shown)",
    "Tested System": "IRAK4 (Homo sapiens (Human), UniProt Q9NWZ3)",
    "pIC50": "6.00 to 7.00"
  },
  {
    "Compound": "N#Cc1cccc(-c2ncc3ccc(-c4cncc(N)c4)cn23)n1",
    "Tested System": "IRAK4 (Homo sapiens (Human), UniProt Q9NWZ3)",
    "pIC50": "> 7.00"
  },
  {
    "Compound": "Nc1cncc(-c2ccc3cnn(-c4cccc(C(=O)O)n4)c3c2)c1",
    "Tested System": "IRAK4 (Homo sapiens (Human), UniProt Q9NWZ3)",
    "pIC50": "6.00 to 7.00"
  },
  {
    "Compound": "CNC(=O)c1cccc(-n2ncc3ccc(-c4cncc(N)c4)cc32)n1",
    "Tested System": "IRAK4 (Homo sapiens (Human), UniProt Q9NWZ3)",
    "pIC50": "6.00 to 7.00"
  }
]
